The reported numbers originate from patent US20210196720A1.

- experimentalDetails: Single rising oral dose Phase 1 PK, healthy adults (young males unless stated)
- Assay type: in vivo, human
- assayConditions: male, human, plasma, oral, 10 mg, single 10 mg; read-out: AUC0-24
reportedMetric: AUC(0-t) (ng·h/mL)

compound | reportedMetric | measured
O=C(Nc1ccc(C[C@@H]2CC[C@H]([C@H](O)c3ccccc3)N2)cc1)[C@@H]1CCc2nccc(=O)n21 [Vibegron] | AUC(0-t) | 30

###

- experimentalDetails: clinical
- assayConditions: human, plasma, oral, 100 mg

lineNotation | Cmax [ng/mL]
O=C(Nc1ccc(C[C@@H]2CC[C@H]([C@H](O)c3ccccc3)N2)cc1)[C@@H]1CCc2nccc(=O)n21 | 152

###

- experimentalDetails: Drug interaction: effect of conmed on vibegron PK
- Type: in vivo, human
- assayConditions: human, plasma, oral, 100 mg single + diltiazem ER 240 mg QD
reportedMetric: AUC (ng·h/mL)

lineNotation | reportedMetric | measured
O=C(Nc1ccc(C[C@@H]2CC[C@H]([C@H](O)c3ccccc3)N2)cc1)[C@@H]1CCc2nccc(=O)n21 | AUC | 2170

###

- experimentalDetails: Multiple rising dose Phase 1 PK, healthy subjects, day 14 (young males unless stated)
- Assay type: in vivo, human
- assayConditions: both sexes, human, plasma, oral, 100 mg, 100 mg QD, elderly Japanese; read-out: t1/2 (converted)

lineNotation | half-life
O=C(Nc1ccc(C[C@@H]2CC[C@H]([C@H](O)c3ccccc3)N2)cc1)[C@@H]1CCc2nccc(=O)n21 | 75.1 h

###

- experimentalDetails: Single rising oral dose Phase 1 PK, healthy adults (young males unless stated)
- Assay type: in vivo, human
- assayConditions: male, human, plasma, oral, 10 mg, single 10 mg, Japanese

compound | AUC(0-inf), ng·h/mL
O=C(Nc1ccc(C[C@@H]2CC[C@H]([C@H](O)c3ccccc3)N2)cc1)[C@@H]1CCc2nccc(=O)n21 [Vibegron] | 98.7

###

- experimentalDetails: Single rising oral dose Phase 1 PK, healthy adults (young males unless stated)
- Format: in vivo, human
- assayConditions: male, human, plasma, oral, 200 mg, single 200 mg; read-out: AUC0-24
reportedMetric: AUC(0-t) (ng·h/mL)

lineNotation | reportedMetric | measured
O=C(Nc1ccc(C[C@@H]2CC[C@H]([C@H](O)c3ccccc3)N2)cc1)[C@@H]1CCc2nccc(=O)n21 | AUC(0-t) | 1740

###

- experimentalDetails: Aqueous vs non-aqueous tablet bioequivalence, 50 mg
- Assay type: in vivo, human
- assayConditions: human, plasma, po, 50 mg, 50 mg test, aqueous tablet (PMFII)

lineNotation | Cmax
O=C(Nc1ccc(C[C@@H]2CC[C@H]([C@H](O)c3ccccc3)N2)cc1)[C@@H]1CCc2nccc(=O)n21 | 41 ng/mL

###

- experimentalDetails: Single rising oral dose Phase 1 PK, healthy adults (young males unless stated)
- Type: in vivo, human
- assayConditions: male, human, plasma, oral, 10 mg, single 10 mg
- Description: The steady state AUC geometric mean accumulation ratios were ˜2 in young male subjects and ˜2.8 in elderly subjects (male and female). All subjects were healthy adults. […] Systemic exposures were greater than dose proportional up to 600 mg. Although exposures were similar in middle-aged males when compared to young males, plasma concentrations were higher in elderly compared to middle-aged and young subjects. […]
reportedMetric: Cmax (ng/mL)

molecule | measured
O=C(Nc1ccc(C[C@@H]2CC[C@H]([C@H](O)c3ccccc3)N2)cc1)[C@@H]1CCc2nccc(=O)n21 [Vibegron] | 4.76
